Measured values drawn from ChEMBL document CHEMBL3763032 for this set.

# experimental system: Choline kinase alpha (Homo sapiens)
# Sequence (P35790 whole entry): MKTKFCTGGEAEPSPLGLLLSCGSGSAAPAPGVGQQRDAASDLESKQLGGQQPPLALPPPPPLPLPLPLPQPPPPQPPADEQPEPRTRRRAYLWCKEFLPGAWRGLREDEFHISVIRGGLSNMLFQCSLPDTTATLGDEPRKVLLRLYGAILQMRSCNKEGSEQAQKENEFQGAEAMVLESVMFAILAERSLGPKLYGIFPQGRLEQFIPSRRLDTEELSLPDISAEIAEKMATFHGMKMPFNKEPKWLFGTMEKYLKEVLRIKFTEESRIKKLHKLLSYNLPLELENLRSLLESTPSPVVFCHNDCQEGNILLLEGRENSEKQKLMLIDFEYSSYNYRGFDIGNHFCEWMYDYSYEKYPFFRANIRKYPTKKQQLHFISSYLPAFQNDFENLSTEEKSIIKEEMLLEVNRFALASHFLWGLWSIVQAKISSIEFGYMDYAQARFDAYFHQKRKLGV
pKd: −log10 of the molar value.
Decide using pKd: a value greater than or equal to 6 is rule met, a smaller one is rule not met.

Challenge: Textbook exercise: given the entry CN1CCCN(Cc2ccc(-c3ccc(CN4CCCN(C)CC4)cc3)cc2)CC1 , state whether its pKd is greater than or equal to 6.
Response given: rule met

Challenge: # check: pKd of CN1CCCN(Cc2ccc(-c3ccc(CN4CCCN(C)CC4)c(F)c3F)cc2)CC1 is greater than or equal to 6
Response given: rule met

Challenge: Identify whether the reported pKd of the following compound is 6 or greater: CN1CCCN(Cc2ccc(CN)cc2)CC1
Response given: rule not met

Challenge: State whether the measured pKd reaches 6, counting equality as reaching it, for CN1CCCN(Cc2ccc3ncccc3c2)CC1
Response given: rule not met

Challenge: Is pKd for COC(=O)c1ccc(-c2ccc(CN3CCCN(C)CC3)cc2)cc1 at or above 6?
Response given: rule not met

Challenge: Exam item: decide whether the reported pKd for CN1CCCN(Cc2ccc(-c3ccccc3)cc2)CC1 is at least 6.
Response given: rule not met

Challenge: Given CN1CCCN(Cc2ccc3ccccc3c2)CC1 , state whether its pKd is at least 6.
Response given: rule not met

Challenge: Test whether the compound CN1CCCN(Cc2ccc(-c3ccc(C(F)(F)F)cc3)cc2)CC1 records pKd of 6 or higher.
Response given: rule not met

Challenge: Please indicate if the recorded pKd for CN1CCCN(Cc2ccc(-c3ccc(CN4CCCN(C)CC4)cc3C#N)c(F)c2)CC1 meets or exceeds 6.
Response given: rule met

Challenge: Please indicate if the recorded pKd for CN1CCCN(c2ccc(CO)cc2)CC1 meets or exceeds 6.
Response given: rule not met

Challenge: Given CN1CCNCC(Cc2ccc3ncccc3c2)C1 (configuration not stated) , state whether its pKd is at least 6.
Response given: rule not met

Challenge: Please check the record CN1CCCN(Cc2ccc(-c3ccc(CN4CCCN(C)CC4)cc3F)cc2)CC1 and state if its pKd is at or above 6.
Response given: rule met

###

# experimental system: Choline kinase alpha (Homo sapiens)
# test details: Inhibition of ChoKalpha in human MDA-MB-415 cells assessed as reduction in phosphocholine level after 24 hrs by NMR analysis
# Assay type: cell-based
property measured: IC50 (nM)
Numeric only. Scale: nM

Challenge: Would you mind telling me what IC50 value was observed for CN1CCCN(Cc2ccc(-c3ccc(CN4CCCN(C)CC4)cc3C#N)c(F)c2)CC1 ?
Response given: 750

###

property measured: pIC50
In simple prose, pIC50 is minus the logarithm base ten of a concentration in moles per litre.

Challenge: // fetch Choline kinase alpha (Homo sapiens) pIC50 for CN1CCCN(Cc2ccc(-c3ccc(C(=O)N4CCCN(C)CC4)cc3)cc2)CC1
Response given: 6.60

Challenge: Enter reported pIC50 observed with Choline kinase alpha (Homo sapiens) for COc1ccc(-c2ccc(CN3CCCN(C)CC3)cc2)cc1
Response given: 5.84

Challenge: Can you look up pIC50 on Choline kinase alpha (Homo sapiens) for COC(=O)c1ccc(-c2ccc(CN3CCCN(C)CC3)cc2)cc1 ?
Response given: 5.31

Challenge: Recall the recorded pIC50 for CN1CCCN(Cc2ccc(-c3ccc(CN4CCCN(C)CC4)c(F)c3F)cc2)CC1 with Choline kinase alpha (Homo sapiens) and state it.
Response given: 6.63

Challenge: Can you look up pIC50 on Choline kinase alpha (Homo sapiens) for CN1CCCN(Cc2ccc(-c3cc(F)c(CN4CCCN(C)CC4)c(F)c3)cc2)CC1 ?
Response given: 6.59

Challenge: API: value(readout=pIC50, system=Choline kinase alpha (Homo sapiens)) for record CN1CCCN(Cc2ccc(CN)cc2)CC1
Response given: 4.06

Challenge: Reported pIC50 for Choline kinase alpha (Homo sapiens), given CN1CCCN(Cc2ccc(-c3ccc(C(F)(F)F)cc3)cc2)CC1 ?
Response given: 5.59

Challenge: Hello, I am looking for reported pIC50 with Choline kinase alpha (Homo sapiens) for CN1CCCN(Cc2ccc(-c3ccc(CN4CCCN(C)CC4)cc3C#N)c(F)c2)CC1 . Could you help?
Response given: 7.07

Challenge: Requested read-out pIC50, target or system Choline kinase alpha (Homo sapiens), entry CN1CCCN(Cc2ccc3ncccc3c2)CC1
Response given: 5.41

Challenge: Reported pIC50 for Choline kinase alpha (Homo sapiens), given CN1CCCN(Cc2ccc(-c3ccccc3)cc2)CC1 ?
Response given: 5.83

Challenge: // fetch Choline kinase alpha (Homo sapiens) pIC50 for CN1CCCN(Cc2ccc(-c3ccc(CN4CCCN(C)CC4)cc3F)cc2)CC1
Response given: 6.78

Challenge: Short answer please: pIC50, Choline kinase alpha (Homo sapiens), entry CN1CCCN(Cc2ccc(-c3ccc(N4CCN(C)CC4)cc3)cc2)CC1
Response given: 5.89

Challenge: Recall the recorded pIC50 for CN1CCCN(Cc2ccc(-c3ccc(CN4CCCN(C)CC4)c(Cl)c3)cc2)CC1 with Choline kinase alpha (Homo sapiens) and state it.
Response given: 6.57

Challenge: Hello, I am looking for reported pIC50 with Choline kinase alpha (Homo sapiens) for CN1CCCN(Cc2ccc(-c3ccc(CN4CCCN(C)CC4)cc3)cc2)CC1 . Could you help?
Response given: 6.34
